Below, IC50 values reported for Histamine H3 receptor (Homo sapiens) across several publications.
Give the value in nM but do not write nM after it.

compound	experimental_system	recorded_result
CCCN1CCN(C(=O)[C@H]2C[C@@H]2c2ccccc2)CC1 (relative stereo)	Histamine H3 receptor (Homo sapiens)	39.7

Ask | Identify measured IC50 obtained with Histamine H3 receptor (Homo sapiens) for `COc1nccc2c1C(=O)O[C@]21CC[C@H](C(=O)N(C)CCN2CCCCC2)CC1` .
Reply | 0.32

Ask | For Histamine H3 receptor (Homo sapiens), give IC50 of the listed compound: `COc1ncc(N2CC3(CCN(c4ccc(OCCCN5CCCCC5)cc4)CC3)OCC2=O)cn1`
Reply | 0.22

Ask | Write IC50 of `N#Cc1cccc(C(=O)N2CCC3(CC2)CC(C(=O)N2CCCN(C4CCC4)CC2)C3)c1` ; system used: Histamine H3 receptor (Homo sapiens)
Reply | 7.62

Ask | Provide IC50, system Histamine H3 receptor (Homo sapiens), entry `Cc1cc(C(=O)N2CCC3(CC2)CC(C(=O)N2CCN(C4CCC4)CC2)C3)ccn1`
Reply | 21.8

Ask | Report the value of IC50 obtained on Histamine H3 receptor (Homo sapiens) for `O=C(c1ccccn1)N1CCC2(CC1)CC(C(=O)N1CCCN(C3CCC3)CC1)C2` .
Reply | 15

Ask | Please report the measured IC50 for `O=C([C@H]1C[C@@H]1c1ccc(Br)cc1)N1CCN(C2CCC2)CC1` tested on Histamine H3 receptor (Homo sapiens).
Reply | 6.81

Ask | # return IC50 of `O=C(CCc1ccncc1)N1CCC2(CC1)CC(C(=O)N1CCN(C3CCC3)CC1)C2` (system: Histamine H3 receptor (Homo sapiens))
Reply | 19.7

Ask | // fetch IC50 for `O=C(C1CC2(CCN(c3ccncc3)CC2)C1)N1CCN(C2CCC2)CC1` ; system: Histamine H3 receptor (Homo sapiens)
Reply | 10.1

Ask | Enter measured IC50, system Histamine H3 receptor (Homo sapiens), for the compound shown: `O=C([C@@H]1C[C@H]1c1ccccc1)N1CCN(C2CCC2)CC1`
Reply | 870

Ask | Determine reported IC50 for NC(=O)c1cccc([C@@H]2C[C@H]2C(=O)N2CCN(C3CCC3)CC2)c1 (single isomer, unassigned; enantiomer 1) ; test system: Histamine H3 receptor (Homo sapiens).
Reply | 6.19

Ask | Please tell me the measured IC50 for `O=C(c1ccccc1)N1CCC2(CC1)CC(C(=O)N1CCN(C3CCC3)CC1)C2` ; system: Histamine H3 receptor (Homo sapiens).
Reply | 48.4

Ask | Enter recorded IC50 with Histamine H3 receptor (Homo sapiens) for `CCc1cnccc1C(=O)N1CCC2(CC1)CC(C(=O)N1CCN(C3CCC3)CC1)C2` here.
Reply | 22.9
